Parameter: inhibition at 0.1 µM. Scope: all listed entries.
testedSystem: human 5-HT3 receptor (Homo sapiens)
Construct: purchased BIOLINKS K.K; host or cells: HEK-293 cells (membrane preparation)
Sequence (P46098 24-478): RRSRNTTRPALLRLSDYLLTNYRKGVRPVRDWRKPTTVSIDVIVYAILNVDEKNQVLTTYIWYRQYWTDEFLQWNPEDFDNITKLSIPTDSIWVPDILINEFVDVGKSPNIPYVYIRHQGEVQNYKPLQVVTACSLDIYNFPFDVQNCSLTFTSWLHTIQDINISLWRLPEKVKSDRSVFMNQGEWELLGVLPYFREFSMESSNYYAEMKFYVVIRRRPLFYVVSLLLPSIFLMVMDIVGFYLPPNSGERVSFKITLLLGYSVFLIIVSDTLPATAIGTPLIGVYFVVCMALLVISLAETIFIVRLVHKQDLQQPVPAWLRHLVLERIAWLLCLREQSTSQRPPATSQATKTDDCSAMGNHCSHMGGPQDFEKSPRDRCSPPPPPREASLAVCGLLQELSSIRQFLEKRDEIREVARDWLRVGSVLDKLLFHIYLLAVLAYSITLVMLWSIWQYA
measurementDescription: Measurement of affinity to human 5-HT3 receptor (in vitro), [3H]BRL-43694 binding
cond: test compound 100 nmols/L; [3H]BRL-43694 0.5 nmols/L; HEK-293 cell membrane expressing human 5-HT3 receptor; read-out: Percent Inhibition (%) on Each Receptor's Binding at 10^−7M, 5-HT3
endpointName: inhibition at 0.1 µM (%)

compound=O[C@@H]1C[C@H]2CN(c3nccc4ccoc34)CCN2C1 testedsystem="human 5-HT3 receptor (Homo sapiens)" valueunit=% measurement=95.5
compound="Nn1c(CCCCN2CCN(c3ccc4ccccc4n3)CC2)nc2c(c1=O)CC(O)CC2 (centres unmarked)" testedsystem="human 5-HT3 receptor (Homo sapiens)" valueunit=% measurement=92.5
compound=O=c1c2c(nc(CCCCN3CCN(c4ccc5ccccc5n4)CC3)n1Cc1ccccc1)CCCC2 testedsystem="human 5-HT3 receptor (Homo sapiens)" valueunit=% measurement=61.2
compound=Cc1sc2nc(SCCCN3CCN(c4ccccn4)CC3)[nH]c(=O)c2c1C testedsystem="human 5-HT3 receptor (Homo sapiens)" valueunit=% measurement=52.6
compound=CN1CCN(c2nccc3ccsc23)CC1 testedsystem="human 5-HT3 receptor (Homo sapiens)" valueunit=% measurement=97.5
compound=Cc1sc2nc(CCCCN3CCN(c4ccc5ccccc5n4)CC3)n(N)c(=O)c2c1C testedsystem="human 5-HT3 receptor (Homo sapiens)" valueunit=% measurement=96.9
compound=c1cc2ccsc2c(N2CCN3CCC[C@H]3C2)n1 testedsystem="human 5-HT3 receptor (Homo sapiens)" valueunit=% measurement=99.5
compound="CC1CCc2nc(CCCCN3CCN(c4ccc5ccccc5n4)CC3)n(N)c(=O)c2C1 (centres unmarked)" testedsystem="human 5-HT3 receptor (Homo sapiens)" valueunit=% measurement=91.5
compound=Cc1cc(N2CCN(CCCCc3nc4c(c(=O)n3Cc3ccccc3)CCCC4)CC2)nc2ccccc12 testedsystem="human 5-HT3 receptor (Homo sapiens)" valueunit=% measurement=78.8
compound=Nn1c(CCCCN2CCN(c3ccc4ccccc4n3)CC2)nc2cccc(Cl)c2c1=O testedsystem="human 5-HT3 receptor (Homo sapiens)" valueunit=% measurement=43.3
compound=Cc1ccc2c(=O)n(C)c(CCCCN3CCN(c4ccc5ccccc5n4)CC3)nc2c1 testedsystem="human 5-HT3 receptor (Homo sapiens)" valueunit=% measurement=30

Value source: patent US7799775B2
